Where these numbers come from: patent EP4635500A1

Test system: Enterobacterales
test-summary: MIC, broth microdilution, CDC/FDA Antibiotic Resistance Isolate Bank (Example 7, Tables 8, 11, 12)
Format: cell-based
experimental-setup: Klebsiella pneumoniae, Klebsiella pneumoniae KUB No. 5784, AR Bank #438; read-out: MIC
Listed molecules paired with reported MIC
property-label: MIC (µg/mL)

molecule="C[C@H]1COc2c(N3CCN(C)CC3)c(F)cc3c(=O)c(C(=O)O)cn1c23 [Levofloxacin, levofloxacin]" relation_sign== value_observed=64
molecule="CC(C)(O/N=C(\\C(=O)N[C@@H]1C(=O)N2C(C(=O)[O-])=C(C[N+]3(CCNC(=O)c4ccc(O)c(O)c4Cl)CCCC3)CS[C@H]12)c1csc(N)n1)C(=O)O [Cefiderocol, cefiderocol]" relation_sign== value_observed=0.5
molecule="NCC[C@H](O)C(=O)N[C@@H]1C[C@H](N)[C@@H](O[C@H]2O[C@H](CN)[C@@H](O)[C@H](O)[C@H]2O)[C@H](O)[C@H]1O[C@H]1O[C@H](CO)[C@@H](O)[C@H](N)[C@H]1O [Amikacin, amikacin]" relation_sign== value_observed=32
molecule="O=C(O)c1cn(C2CC2)c2cc(N3CCNCC3)c(F)cc2c1=O [Ciprofloxacin, ciprofloxacin]" relation_sign=> value_observed=64
molecule="CO/N=C(\\C(=O)N[C@@H]1C(=O)N2C(C(=O)[O-])=C(C[n+]3ccn4ncccc43)CS[C@H]12)c1nsc(N)n1 [Cefozopran, cefozopran]" relation_sign=> value_observed=64

----------
# key: entry, value: MIC
Tested on: Enterobacterales
test-summary: MIC, broth microdilution, CDC/FDA Antibiotic Resistance Isolate Bank (Example 7, Tables 8, 11, 12)
Format: cell-based
experimental-setup: Enterobacter clooreae, KUB No. 5633, AR Bank # 136; read-out: MIC
property-label: MIC

mol=CC(C)(O/N=C(\C(=O)N[C@@H]1C(=O)N2C(C(=O)[O-])=C(C[N+]3(CCNC(=O)c4ccc(O)c(O)c4Cl)CCCC3)CS[C@H]12)c1csc(N)n1)C(=O)O property_label=MIC value_observed="0.25 µg/mL"
mol=NCC[C@H](O)C(=O)N[C@@H]1C[C@H](N)[C@@H](O[C@H]2O[C@H](CN)[C@@H](O)[C@H](O)[C@H]2O)[C@H](O)[C@H]1O[C@H]1O[C@H](CO)[C@@H](O)[C@H](N)[C@H]1O property_label=MIC value_observed="2 µg/mL"
mol=CO/N=C(\C(=O)N[C@@H]1C(=O)N2C(C(=O)[O-])=C(C[n+]3ccn4ncccc43)CS[C@H]12)c1nsc(N)n1 property_label=MIC value_observed="> 64 µg/mL"
mol=C[C@H]1COc2c(N3CCN(C)CC3)c(F)cc3c(=O)c(C(=O)O)cn1c23 property_label=MIC value_observed="16 µg/mL"

----------
System: Klebsiella pneumoniae
test-summary: MIC, broth microdilution, standard strains and Japanese clinical isolates (Example 5, Table 4)
Type: cell-based
experimental-setup: ATCCBAA1898, KUB3996 Klebsiella pneumoniae ATCC BAA-1898, KPC-2
# MIC per entry
property-label: MIC (mg/L)

mol=C[C@@H](O)[C@H]1C(=O)N2C(C(=O)O)=C(S[C@@H]3CN[C@H](C(=O)N(C)C)C3)[C@H](C)[C@H]12 property_label=MIC relation_sign== value_observed=32
mol=C[C@@H](O)[C@H]1C(=O)N2C(C(=O)O)=C(SCCN=CN)C[C@H]12 property_label=MIC relation_sign== value_observed=32
mol=CC(C)(O/N=C(\C(=O)N[C@@H]1C(=O)N2C(C(=O)[O-])=C(C[N+]3(CCNC(=O)c4ccc(O)c(O)c4Cl)CCCC3)CS[C@H]12)c1csc(N)n1)C(=O)O property_label=MIC relation_sign== value_observed=2
mol=CC(C)(O/N=C(\C(=O)N[C@@H]1C(=O)N2C(C(=O)[O-])=C(C[n+]3ccccc3)CS[C@H]12)c1csc(N)n1)C(=O)O property_label=MIC relation_sign=> value_observed=32
